Target: KRas G12D mutant (Homo sapiens, UniProt P01116, G12D)
Construct: made in house
Experiment: Ras GTP binding domain inhibition assay (labeled-GTP competition, cell-free)
Conditions: without SOS, read-out: KRas G12D mutant: % inh.
reported.property: inhibition at 20 µM

>>> result("NC(=O)c1nc(O)c2scc(-c3ccccn3)c2n1")
"51 to 75%"
>>> result("O=C(Nc1ccccn1)c1nc(O)c2scc(-c3ccccn3)c2n1")
"1 to 25%"

Task item: Any idea what its inhibition at 20 µM is? The molecule is CC(C)OCCn1ccnc1-c1nc(O)c2scc(-c3ccccn3)c2n1
Reply: 51 to 75%

Task item: Any idea what its inhibition at 20 µM is? The molecule is Cc1c(-c2ccn(C(C)C)n2)sc2nc(-c3nccn3C)nc(NCCc3ncc[nH]3)c12
Reply: 1 to 25%

Task item: Any idea what its inhibition at 20 µM is? The molecule is COCCNc1nc(-c2nccn2C)nc2sc(-c3ccn(C(C)C)n3)c(C)c12
Reply: 76 to 100%

Task item: Any idea what its inhibition at 20 µM is? The molecule is COCC1CCN(c2nc(-c3nccn3C)nc3sc(-c4ccn(C(C)C)n4)c(C)c23)C1 (racemic)
Reply: 51 to 75%

Task item: Any idea what its inhibition at 20 µM is? The molecule is O=C(Nc1ccccc1)c1nc(O)c2scc(-c3ccccn3)c2n1
Reply: 1 to 25%

Task item: Any idea what its inhibition at 20 µM is? The molecule is CO[C@H]1CC[C@@H](Nc2nc(C(N)=O)nc3sccc23)C1 (racemic)
Reply: 1 to 25%
